System: heart frequency
EXPERIMENT: Heart frequency (tachycardia) in conscious sheep dogs
Type: in vivo
CONDITION_PARAMETERS: 1 mg/kg, oral
Experimental: The positive inotropic activity was measured after the oral administration of the test substances to conscious sheep dogs. […] By differentiation of the ascending side of the left ventricular pressure (LVP), there is calculated the maximum pressure increase rate (dLVP/dtmax) which represents the contractility parameter. Simultaneously, the heart frequency is recorded via a cardiotachograph. […]
Measured Heart frequency Δ% (percentage variation) of individual entries

// solved cases for Heart frequency Δ% (percentage variation) follow
Cc1c(Br)ccc2c1CNC1=NC(=O)CN12.Cl = +10%
Cc1cccc2c1CNC1=NC(=O)CN12.Cl = -7%
COc1ccc2c(c1Cl)CNC1=NC(=O)CN12.Cl = +47%
Cl.O=C1CN2C(=N1)NCc1c2ccc(Cl)c1Cl = +22%
Cc1cccc2c1N1CC(=O)N=C1NC2.Cl = -19%

Would you kindly look at the next entry?
# `Cc1c(Cl)ccc2c1CNC1=NC(=O)CN12.Cl` with heart frequency: Heart frequency Δ% (percentage variation) is +4%

====

Test system: heart frequency
EXPERIMENT: Heart frequency (tachycardia) in conscious sheep dogs
Assay type: in vivo
CONDITION_PARAMETERS: 1 mg/kg, oral
Experimental: The positive inotropic activity was measured after the oral administration of the test substances to conscious sheep dogs. […] By differentiation of the ascending side of the left ventricular pressure (LVP), there is calculated the maximum pressure increase rate (dLVP/dtmax) which represents the contractility parameter. Simultaneously, the heart frequency is recorded via a cardiotachograph. […]
RECORDED_ENDPOINT: Heart frequency Hrs. (duration of activity) (h)

P = Cc1c(Br)ccc2c1CNC1=NC(=O)CN12.Cl
Q = Cl.O=C1CN2C(=N1)NCc1c2ccc(Cl)c1Cl
Parameter check: reported Heart frequency Hrs. (duration of activity) is higher for which label, P or Q ? Selection: enter the item's label. Q

====

Tested on: left ventricular pressure (LVP)
EXPERIMENT: Positive inotropic activity (dLVP/dtmax) in conscious sheep dogs
Assay type: in vivo
CONDITION_PARAMETERS: 1 mg/kg, oral
Measured Inotropy Hrs (duration of activity) of individual entries
Only the number, expressed in h, is required.

// solved cases for Inotropy Hrs (duration of activity) follow
Cc1cccc2c1N1CC(=O)N=C1NC2.Cl = 2.5
Cl.O=C1CN2C(=N1)NCc1c2ccc(Cl)c1Cl = 7.5
Cc1c(Br)ccc2c1CNC1=NC(=O)CN12.Cl = 2.5
Cc1c(Cl)ccc2c1CNC1=NC(=O)CN12.Cl = 6
Cc1cccc2c1CNC1=NC(=O)CN12.Cl = 2

Would you kindly look at the next entry?
Consider `COc1ccc2c(c1Cl)CNC1=NC(=O)CN12.Cl` . Its measured Inotropy Hrs (duration of activity) is 1

====

System: left ventricular pressure (LVP)
EXPERIMENT: Positive inotropic activity (dLVP/dtmax) in conscious sheep dogs
Format: in vivo
CONDITION_PARAMETERS: Canis lupus familiaris, 10 mg/kg, oral, read-out: Inotropy Δ% (percentage variation of dLVP/dtmax)
Measured change in vivo at 10 mg/kg of individual entries
Only the number, expressed in %, is required.

// solved cases for change in vivo at 10 mg/kg follow
Cc1c(Br)ccc2c1CNC1=NC(=O)CN12.Cl [hydrochloride] = 120
Cc1ccc2c(c1C)CNC1=NC(=O)CN12.Cl [hydrochloride] = 18
Cl.O=C1CN2C(=N1)NCc1c(Cl)cccc12 [hydrochloride] = 78
Cl.O=C1CN2C(=N1)NCc1cc(Cl)ccc12 [hydrochloride] = 17
Cc1c(Cl)ccc2c1CNC1=NC(=O)CN12.Cl [hydrochloride] = 50
COc1ccc2c(c1Cl)CNC1=NC(=O)CN12.Cl [hydrochloride] = 60

Would you kindly look at the next entry?
Consider COc1ccc2c(c1)CNC1=NC(=O)CN12.Cl [hydrochloride] . Its measured change in vivo at 10 mg/kg is 67

From: patent US4390540A
